- procedure_details: Mouse pharmacokinetics, oral single and repeat dose
- Type: in vivo
- experimental_setup: mouse, plasma; female C57 mice, 7.5 mg/kg PO NMP

{"structure_string": "Cc1c(C#Cc2cccc3nc([C@H](C)NC(=O)c4c(N)nn5cccnc45)n(-c4ccccc4)c(=O)c23)cnn1C", "AUC(0-inf), ng·h/mL": 20700}

====

- target: PI3K-γ in RAW264.7 macrophages (Mus musculus (Mouse))
- Sequence (Q9JHG7 whole entry): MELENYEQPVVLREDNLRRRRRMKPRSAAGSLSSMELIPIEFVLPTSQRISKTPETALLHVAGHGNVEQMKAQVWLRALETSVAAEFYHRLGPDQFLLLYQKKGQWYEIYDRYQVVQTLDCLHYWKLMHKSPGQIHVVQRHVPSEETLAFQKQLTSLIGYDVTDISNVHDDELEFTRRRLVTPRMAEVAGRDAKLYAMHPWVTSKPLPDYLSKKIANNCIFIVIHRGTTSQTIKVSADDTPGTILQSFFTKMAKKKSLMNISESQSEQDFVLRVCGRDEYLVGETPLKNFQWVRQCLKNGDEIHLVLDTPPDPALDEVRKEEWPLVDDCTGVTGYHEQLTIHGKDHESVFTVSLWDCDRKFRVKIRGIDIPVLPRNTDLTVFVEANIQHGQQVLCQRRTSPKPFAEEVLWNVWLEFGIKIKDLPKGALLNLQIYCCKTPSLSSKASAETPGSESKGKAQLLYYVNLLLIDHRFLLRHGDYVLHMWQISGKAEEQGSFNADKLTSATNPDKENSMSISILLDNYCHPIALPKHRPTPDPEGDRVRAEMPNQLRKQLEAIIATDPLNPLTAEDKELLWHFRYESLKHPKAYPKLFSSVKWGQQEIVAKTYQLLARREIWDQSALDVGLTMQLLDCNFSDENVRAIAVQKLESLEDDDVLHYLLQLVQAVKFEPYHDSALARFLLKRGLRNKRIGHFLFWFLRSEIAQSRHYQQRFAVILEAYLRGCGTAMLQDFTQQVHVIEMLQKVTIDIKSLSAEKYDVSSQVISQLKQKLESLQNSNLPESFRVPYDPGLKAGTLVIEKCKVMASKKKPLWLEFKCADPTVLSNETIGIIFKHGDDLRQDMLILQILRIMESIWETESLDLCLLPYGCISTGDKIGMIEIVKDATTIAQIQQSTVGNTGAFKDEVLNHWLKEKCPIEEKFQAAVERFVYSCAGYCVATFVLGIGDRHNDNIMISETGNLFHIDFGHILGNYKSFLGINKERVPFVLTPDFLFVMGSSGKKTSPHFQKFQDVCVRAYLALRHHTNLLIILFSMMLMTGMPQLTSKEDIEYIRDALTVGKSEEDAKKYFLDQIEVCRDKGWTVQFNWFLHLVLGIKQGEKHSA
- procedure_details: Raw264.7 p110 γ assay (PI3K-γ selective cellular assay, C5a-stimulated phospho-AKT)
- Assay type: cell-based

{"structure_string": "Cc1ccncc1C#Cc1cccc2cc([C@H](C)NC(=O)c3c(N)nn4cccnc34)n(-c3ccccc3)c(=O)c12", "RAJIδ/Raw264.7 γ IC50 (selectivity)": "Y (Y = 50 to <850)"}
{"structure_string": "C[C@H](NC(=O)c1c(N)nn2cccnc12)c1cc2cccc(C#Cc3cccnc3)c2c(=O)n1-c1ccccc1", "RAJIδ/Raw264.7 γ IC50 (selectivity)": "Y (Y = 50 to <850)"}

====

- target: PI3K β (Homo sapiens (Human), UniProt P42338)
- Sequence (P42338 whole entry): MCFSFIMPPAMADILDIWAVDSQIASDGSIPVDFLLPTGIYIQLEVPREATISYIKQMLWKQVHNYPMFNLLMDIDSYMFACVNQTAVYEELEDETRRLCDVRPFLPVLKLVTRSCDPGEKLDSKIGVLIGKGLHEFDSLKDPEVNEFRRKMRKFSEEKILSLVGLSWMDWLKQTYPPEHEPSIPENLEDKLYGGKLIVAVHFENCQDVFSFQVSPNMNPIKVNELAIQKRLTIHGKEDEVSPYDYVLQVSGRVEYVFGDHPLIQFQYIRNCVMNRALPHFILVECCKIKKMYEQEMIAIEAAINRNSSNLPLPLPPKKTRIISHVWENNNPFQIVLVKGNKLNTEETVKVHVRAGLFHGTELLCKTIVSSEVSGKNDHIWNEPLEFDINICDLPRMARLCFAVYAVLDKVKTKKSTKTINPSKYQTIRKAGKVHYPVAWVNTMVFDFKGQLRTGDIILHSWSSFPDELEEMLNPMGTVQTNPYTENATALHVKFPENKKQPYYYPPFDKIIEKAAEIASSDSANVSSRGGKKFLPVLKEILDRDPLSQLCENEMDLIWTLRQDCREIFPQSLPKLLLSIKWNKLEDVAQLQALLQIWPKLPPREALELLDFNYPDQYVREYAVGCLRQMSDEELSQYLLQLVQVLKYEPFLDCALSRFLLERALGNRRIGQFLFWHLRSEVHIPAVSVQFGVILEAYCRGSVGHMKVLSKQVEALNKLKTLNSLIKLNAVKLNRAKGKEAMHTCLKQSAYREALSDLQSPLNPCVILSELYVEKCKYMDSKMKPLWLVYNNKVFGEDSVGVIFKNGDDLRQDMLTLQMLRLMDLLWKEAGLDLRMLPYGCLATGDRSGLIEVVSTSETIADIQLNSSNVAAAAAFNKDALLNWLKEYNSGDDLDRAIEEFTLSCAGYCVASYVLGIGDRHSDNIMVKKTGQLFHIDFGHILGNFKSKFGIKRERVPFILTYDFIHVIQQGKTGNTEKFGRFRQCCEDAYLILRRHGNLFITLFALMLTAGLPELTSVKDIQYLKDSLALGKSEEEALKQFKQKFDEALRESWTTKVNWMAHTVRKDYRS
- Sequence (P27986 whole entry partner): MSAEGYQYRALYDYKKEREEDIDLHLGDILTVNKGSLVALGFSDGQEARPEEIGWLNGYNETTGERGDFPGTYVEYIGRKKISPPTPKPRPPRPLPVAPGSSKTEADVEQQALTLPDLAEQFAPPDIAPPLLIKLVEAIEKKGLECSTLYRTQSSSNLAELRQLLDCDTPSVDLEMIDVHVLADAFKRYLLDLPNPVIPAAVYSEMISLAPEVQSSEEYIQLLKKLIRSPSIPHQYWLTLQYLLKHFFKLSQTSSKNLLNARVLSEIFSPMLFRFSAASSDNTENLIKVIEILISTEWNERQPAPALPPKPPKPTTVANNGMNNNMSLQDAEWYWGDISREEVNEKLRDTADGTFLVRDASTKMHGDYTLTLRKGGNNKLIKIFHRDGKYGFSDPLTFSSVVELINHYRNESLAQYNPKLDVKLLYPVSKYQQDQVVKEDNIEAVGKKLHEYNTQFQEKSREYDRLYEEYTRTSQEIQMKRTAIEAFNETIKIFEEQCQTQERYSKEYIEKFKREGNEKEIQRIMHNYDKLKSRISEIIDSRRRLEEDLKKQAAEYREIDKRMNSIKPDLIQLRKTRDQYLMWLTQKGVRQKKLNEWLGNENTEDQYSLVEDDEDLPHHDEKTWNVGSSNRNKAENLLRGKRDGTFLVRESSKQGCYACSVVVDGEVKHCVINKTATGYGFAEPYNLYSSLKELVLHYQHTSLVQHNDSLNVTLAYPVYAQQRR
- procedure_details: PI3-Kinase Promega ADP-Glo Max assay
- Format: biochemical
Recorded IC50, one value per entry.
endpoint_name: IC50

{"structure_string": "C[C@H](NC(=O)c1c(N)nn2cccnc12)c1cc2cccc(C#Cc3cnn(C)c3)c2c(=O)n1C1CC1", "val": "1 to 5 µM"}
{"structure_string": "C[C@H](NC(=O)c1c(N)nn2cccnc12)c1cc2cccc(C#Cc3ccccn3)c2c(=O)n1-c1ccccc1", "val": "5 to 10 µM"}
{"structure_string": "C[C@H](NC(=O)c1c(N)nn2cccnc12)c1cc2cccc(/C=C/c3ccccc3)c2c(=O)n1-c1ccccc1", "val": "5 to 10 µM"}
{"structure_string": "Cc1c(C#Cc2cccc3nc([C@H](C)NC(=O)c4c(N)nn5cccnc45)n(-c4ccccc4)c(=O)c23)cnn1C", "val": "5 to 10 µM"}
{"structure_string": "C[C@H](NC(=O)c1c(N)nn2cccnc12)c1cc2cccc(N)c2c(=O)n1-c1ccccc1", "val": "1 to 5 µM"}
{"structure_string": "C[C@H](NC(=O)c1c(N)nn2cccnc12)c1cc2cccc(C#Cc3cscn3)c2c(=O)n1-c1ccccc1", "val": "1 to 5 µM"}
{"structure_string": "C[C@H](NC(=O)c1c(N)nn2cccnc12)c1cc2cccc(C#CCN3CCCC3=O)c2c(=O)n1-c1ccccc1", "val": "1 to 5 µM"}
{"structure_string": "COc1cnc(C(=O)N[C@@H](C)c2cc3cccc(C#Cc4cnn(C)c4)c3c(=O)n2-c2ccccc2)c(N)n1", "val": "5 to 10 µM"}
{"structure_string": "C[C@H](NC(=O)c1c(N)nn2cccnc12)c1cc2cccc(C#Cc3ccc(=O)n(C)c3)c2c(=O)n1-c1ccccc1", "val": "5 to 10 µM"}
{"structure_string": "C[C@H](NC(=O)c1c(N)nn2cccnc12)c1cc2cccc(C#CC3CCOCC3)c2c(=O)n1-c1ccccc1", "val": "5 to 10 µM"}
{"structure_string": "C[C@H](NC(=O)c1c(N)nn2cccnc12)c1cc2cccc(NC(=O)c3cnn(C)c3)c2c(=O)n1-c1ccccc1", "val": "5 to 10 µM"}
{"structure_string": "C[C@H](NC(=O)c1c(N)nn2cccnc12)c1cc2cccc(C#Cc3cncs3)c2c(=O)n1-c1ccccc1", "val": "5 to 10 µM"}
{"structure_string": "C[C@H](NC(=O)c1c(N)nn2cccnc12)c1cc2cccc(C#Cc3nccs3)c2c(=O)n1-c1ccccc1", "val": "5 to 10 µM"}
{"structure_string": "Cc1scnc1C#Cc1cccc2cc([C@H](C)NC(=O)c3c(N)nn4cccnc34)n(-c3ccccc3)c(=O)c12", "val": "5 to 10 µM"}
